Reference for the values: patent US11530198B2

target: T. gondii DHFR (tgDHFR) (Toxoplasma gondii, UniProt Q07422); details: hDHFR IC50/tgDHFR IC50
Param threshold (100) applies to Average DHFR selectivity (h/tg); output Met when value >= threshold, Not met when value < threshold.

q: # bool: Average DHFR selectivity (h/tg) of CCCc1nc(N)nc(N)c1N1CCN(c2ccc(OC)cn2)CC1 >= 100
a: Met

q: # bool: Average DHFR selectivity (h/tg) of Nc1ncc(N2CCN(c3cccc(-c4cnc(Cl)nc4)c3)CC2)c(N)n1 >= 100
a: Met

====

Below: a set of entries, each annotated with reported Average DHFR selectivity (h/tg).
molecular target: T. gondii DHFR (tgDHFR) (Toxoplasma gondii, UniProt Q07422); conditions: hDHFR IC50/tgDHFR IC50
Enter the number alone.

Here's what some known entries look like.
[[record]]
compound = "CCCc1nc(N)nc(N)c1N1CCN(c2ccccn2)CC1 [Compound 56]"
assay_readout = "Average DHFR selectivity (h/tg)"
value_measured = 269.78

[[record]]
compound = "COc1ncccc1-c1cccc(N2CCN(c3cnc(N)nc3N)CC2)c1 [Compound 80]"
assay_readout = "Average DHFR selectivity (h/tg)"
value_measured = 165.32

[[record]]
compound = "CCc1nc(N)nc(N)c1N1CCN(c2ccccn2)CC1 [Compound 34]"
assay_readout = "Average DHFR selectivity (h/tg)"
value_measured = 158.49

[[record]]
compound = "CCc1nc(N)nc(N)c1N1CCN(c2ccncc2)CC1 [Compound 36]"
assay_readout = "Average DHFR selectivity (h/tg)"
value_measured = 110.92


--- query ---
q: Which Average DHFR selectivity (h/tg) value belongs to Nc1ncc(N2CCN(c3ccc(Cl)c(Cl)c3)CC2)c(N)n1 [Compound 1] ?
a: 5.5

====

Below: a set of entries, each annotated with reported Average DHFR selectivity (h/tc).
molecular target: UniProt:Q27793; assay: DHFR inhibition assay (diaphorase/resazurin coupled), T. cruzi DHFR; type: biochemical; conditions: hDHFR IC50/tcDHFR IC50
Enter the number alone.

Here's what some known entries look like.
[[record]]
compound_structure_string = "Nc1ncc(N2CCN(c3cccc(-c4ccncn4)c3)CC2)c(N)n1"
assay_readout = "Average DHFR selectivity (h/tc)"
value_measured = 103

[[record]]
compound_structure_string = "Nc1ncc(N2CCN(c3ccc(C(F)(F)F)cc3)CC2)c(N)n1"
assay_readout = "Average DHFR selectivity (h/tc)"
value_measured = 132

[[record]]
compound_structure_string = "Nc1ncc(N2CCN(c3ccc(F)cc3)CC2)c(N)n1"
assay_readout = "Average DHFR selectivity (h/tc)"
value_measured = 100


q: Which Average DHFR selectivity (h/tc) value belongs to COc1ccc(N2CCN(c3cnc(N)nc3N)CC2)cc1 ?
a: 144

====

target: T. brucei DHFR (tbDHFR) (Trypanosoma brucei brucei); test: DHFR inhibition assay (diaphorase/resazurin coupled), T. brucei DHFR; assay type: biochemical; settings: hDHFR IC50/tbDHFR IC50
Below: a set of entries, each annotated with reported Average DHFR selectivity (h/tb)*-DHFR IC50.
Enter the number alone.

Here's what some known entries look like.
[[record]]
compound_structure_string = "Cc1ncc(-c2cccc(C3CCN(c4cnc(N)nc4N)CC3)c2)cn1"
value_measured = 357

[[record]]
compound_structure_string = "Nc1ncc(N2CCN(c3cccc(-c4cnc(C5CC5)nc4)c3)CC2)c(N)n1"
value_measured = 330

[[record]]
compound_structure_string = "Nc1ncc(N2CCN(c3cccc(-c4cnc(Cl)nc4)c3)CC2)c(N)n1"
value_measured = 522


q: Which Average DHFR selectivity (h/tb)*-DHFR IC50 value belongs to CCc1ncc(-c2cccc(N3CCN(c4cnc(N)nc4N)CC3)c2)cn1 ?
a: 375
